target: GPR120 receptor (Homo sapiens (Human)); experiment: Beta (β) arrestin 2 Interaction Assay (BRET assay), β-galactosidase enzyme fragment complementation; conditions: CHO-K1 cells stably expressing the GPR120 receptor; β-arrestin recruitment; 2 hours incubation; 30 μM to 1 nM
Sequence (Q5NUL3 whole entry, the tested form may be a part): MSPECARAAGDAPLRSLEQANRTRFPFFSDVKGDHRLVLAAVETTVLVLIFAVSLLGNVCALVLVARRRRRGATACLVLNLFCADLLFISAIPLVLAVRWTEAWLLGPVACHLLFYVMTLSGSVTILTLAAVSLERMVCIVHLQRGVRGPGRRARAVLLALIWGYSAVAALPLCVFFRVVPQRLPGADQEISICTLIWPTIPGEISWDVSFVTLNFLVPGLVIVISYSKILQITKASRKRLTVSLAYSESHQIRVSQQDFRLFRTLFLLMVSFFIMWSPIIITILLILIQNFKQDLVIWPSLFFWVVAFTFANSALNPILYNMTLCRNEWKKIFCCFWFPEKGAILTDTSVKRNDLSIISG
Sequence (P32121 whole entry partner, the tested form may be a part): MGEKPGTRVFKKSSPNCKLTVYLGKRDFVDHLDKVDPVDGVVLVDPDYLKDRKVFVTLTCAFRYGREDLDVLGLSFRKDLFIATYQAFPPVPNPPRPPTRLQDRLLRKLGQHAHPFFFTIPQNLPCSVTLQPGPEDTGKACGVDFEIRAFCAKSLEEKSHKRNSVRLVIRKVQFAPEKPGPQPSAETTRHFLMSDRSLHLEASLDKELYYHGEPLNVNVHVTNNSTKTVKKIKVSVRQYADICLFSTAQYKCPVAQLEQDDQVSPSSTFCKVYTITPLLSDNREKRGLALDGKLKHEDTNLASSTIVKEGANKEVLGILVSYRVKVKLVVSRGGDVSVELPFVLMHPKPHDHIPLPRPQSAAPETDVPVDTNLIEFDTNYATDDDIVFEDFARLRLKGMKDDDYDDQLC
pEC50: −log10 of the molar value.
Items are presented alongside their recorded pEC50.

Reference set (3 entries):
> print(dat)
                                   compound        result
1  Cc1ccc(C2=C(COc3ccc(CCCC(=O)O)cc3)CCCCC2)cc1 [Example 22]  6.30 to 7.30
2  O=C(O)CCCc1ccc(OCC2=C(c3ccc(C4CC4)cc3)CCCC2)cc1 [Example 7]  6.30 to 7.30
3  Cc1ccc(C2=C(COc3ccc(CCCC(=O)O)cc3)CCCC2)cc1 [Example 15]  6.30 to 7.30

What value of measured pEC50 is listed for Cc1ccc(C2=C(COc3ccc(CCCC(=O)O)cc3)CC(F)CC2)cc1 (stereo not shown) [Example 54] ?
5.30 to 6.30

Find the recorded pEC50 belonging to CC1CCC(c2ccc(C3(C#N)CC3)cc2)=C(COc2ccc(CCCC(=O)O)cc2)C1 (stereo not shown) [Example 53] and report it.
5.30 to 6.30
